assay: in vitro; conditions: human
metric: CC50

(Q) Which measured CC50 value corresponds to COc1nc2ccc(Br)cc2cc1[C@@H](c1ccccc1)[C@@](O)(CCN(C)C)c1cccc2ccccc12 [Bedaquiline, reference compound] ?
(A) > 64 µg/mL

* * *

system: M. tuberculosis H37Rv; assay: In vitro efficacy test using the H37Rv strain, Microplate Alamar Blue Assay (MABA) MIC; type: cell-based, Mycobacterium tuberculosis; settings: wild-type H37Rv strain; two values per compound
metric: MABA MIC vs. H37Rv (µM)
Numbers only here, please. The scale is µM.

• CO[C@H]1/C=C/O[C@@]2(C)Oc3c(C)c(O)c4c(O)c(c(/C=N/N5CCN(C)CC5)c(O)c4c3C2=O)NC(=O)/C(C)=C\C=C\[C@H](C)[C@H](O)[C@@H](C)[C@@H](O)[C@@H](C)[C@H](OC(C)=O)[C@@H]1C [rifampin, reference compound] = 0.24
• NNC(=O)c1ccncc1 [isoniazide, isoniazid, reference compound] = 0.53
• COc1nc2ccc(Br)cc2cc1[C@@H](c1ccccc1)[C@@](O)(CCN(C)C)c1cccc2ccccc12 [Bedaquiline, reference compound] = 0.05
• COc1ncc(-c2ccccc2)cc1C(c1ccccc1)C(O)(CCN(C)C)c1cccc2ccccc12 (centres unmarked) [Compound 9] = 0.36

(Q) Which measured MABA MIC vs. H37Rv value corresponds to COc1ncc(-c2ccc(Br)cc2)cc1C(c1ccccc1)C(O)(CCN(C)C)c1cccc2ccccc12 (centres unmarked) [Compound 133] ?
(A) 0.10

* * *

test system: Vero Cell; test: Vero cell cytotoxicity (IC50); type: cell-based; settings: Chlorocebus sabaeus, Vero, African green monkey kidney cells
# IC50 listing for each entry below
Numbers only here, please. The scale is µg/mL.

Some solved entries appear below for comparison.
* COc1ncc(-c2cncs2)cc1C(c1ccccc1)C(O)(CCN(C)C)c1cccc2ccccc12 (stereo not shown) | 25.4
* COc1ncc(-c2ccsn2)cc1C(c1ccccc1)C(O)(CCN(C)C)c1cccc2ccccc12 (stereo not shown) | 25.1

Now for the compound whose IC50 we want.
(Q) Form field - read-out: IC50; system: Vero Cell; submitted item: COc1ncc(-c2cnsc2)cc1C(c1ccccc1)C(O)(CCN(C)C)c1cccc2ccccc12 (stereo not shown)
(A) 26.3

* * *

system: Vero Cell; test: Vero cell cytotoxicity (IC50); assay type: cell-based; settings: Chlorocebus sabaeus, Vero, African green monkey kidney cells
metric: IC50

Some solved entries appear below for comparison.
- COc1ncc(-c2ccccc2)cc1C(c1cccc(Cl)c1)C(O)(CCN(C)C)c1ccccc1 (stereo not drawn): > 50 µg/mL
- COc1ncc(-c2nccs2)cc1C(c1ccccc1)C(O)(CCN(C)C)c1cccc2ccccc12 (stereo not drawn): 25.9 µg/mL

Now for the compound whose IC50 we want.
(Q) Which measured IC50 value corresponds to COc1ncc(-c2cccc(Cl)c2)cc1C(c1ccccc1)C(O)(CCN(C)C)c1cccc2ccccc12 (stereo not drawn) ?
(A) > 50 µg/mL

* * *

# CC50 listing for each entry below
assay: Hela cell cytotoxicity (CC50); settings: human, HeLa cells (human cervical cancer cells), CC50_Hela, half of the toxic concentration
Numbers only here, please. The scale is µg/mL.

Some solved entries appear below for comparison.
* COc1ncc(-c2ccccc2)cc1C(c1ccccc1)C(O)(CCN(C)C)c1ccccc1 (stereo not drawn) [Compound 22] | 12
* COc1ncc(-c2ccc(Cl)cc2)cc1C(c1ccccc1)C(O)(CCN(C)C)c1cccc(Cl)c1 (stereo not drawn) [Compound 351] | 25.5
* COc1cc(-c2cnc(OC)c(C(c3ccccc3)C(O)(CCN(C)C)c3cccc4ccccc34)c2)ccc1Cl (stereo not drawn) [Compound 379] | 61.8
* COc1ncc(C2CCOCC2)cc1C(c1ccccc1)C(O)(CCN(C)C)c1cccc2ccccc12 (stereo not drawn) [Compound 75] | 22.5
* COc1ncc(-c2ccccc2)cc1C(c1ccccc1)C(O)(CCN(C)C)c1cccc(F)c1F (stereo not drawn) [Compound 31] | 28.1
* COc1ncc(-c2cncs2)cc1C(c1ccccc1)C(O)(CCN(C)C)c1cccc2ccccc12 (stereo not drawn) [Compound 171] | 14.3
* COc1ncc(-c2cscn2)cc1C(c1ccccc1)C(O)(CCN(C)C)c1cccc2ccccc12 (stereo not drawn) [Compound 161] | 14.4
* COc1ncc(C2CCCC2)cc1C(c1ccccc1)C(O)(CCN(C)C)c1cccc2ccccc12 (stereo not drawn) [Compound 63] | 52.9
* COc1ccc(C(c2cc(-c3ccccc3)cnc2OC)C(O)(CCN(C)C)c2ccccc2)cc1 (stereo not drawn) [Compound 237] | 15.6

(Q) Which measured CC50 value corresponds to COc1ncc(-c2ccccc2)cc1C(c1ccc(F)cc1)C(O)(CCN(C)C)c1ccccc1 (stereo not drawn) [Compound 70] ?
(A) 13.7

* * *

# IC50 listing for each entry below
test system: Vero Cell; assay: Vero cell cytotoxicity (IC50); assay type: cell-based; settings: Chlorocebus sabaeus, Vero, African green monkey kidney cells

(Q) Which measured IC50 value corresponds to COc1ncc(C(C)C)cc1C(c1ccccc1)C(O)(CCN(C)C)c1cccc2ccccc12 (stereo not drawn) ?
(A) > 50 µg/mL

(Q) Try COc1ncc(-c2ccccc2)cc1C(c1ccc(Cl)cc1)C(O)(CCN(C)C)c1ccccc1 (stereo not drawn) next.
(A) > 50 µg/mL

(Q) Try COc1ncc(-c2ccc(Cl)c(F)c2)cc1C(c1ccccc1)C(O)(CCN(C)C)c1cccc2ccccc12 (stereo not drawn) next.
(A) > 32 µg/mL

(Q) Try COc1ncc(C2=CCSCC2)cc1C(c1ccccc1)C(O)(CCN(C)C)c1cccc2ccccc12 (stereo not drawn) next.
(A) > 32 µg/mL

(Q) Try CC#Cc1cnc(OC)c(C(c2ccccc2)C(O)(CCN(C)C)c2cccc3ccccc23)c1 (stereo not drawn) next.
(A) > 32 µg/mL

* * *

test system: Vero Cell; assay: Vero cell cytotoxicity (IC50); type: cell-based; conditions: Chlorocebus sabaeus, Vero, African green monkey kidney cells
metric: IC50

Some solved entries appear below for comparison.
• COc1ncc(C2CCSCC2)cc1C(c1ccccc1)C(O)(CCN(C)C)c1cccc2ccccc12 (stereo not drawn) [Compound 255] = > 32 µg/mL
• COc1cccc(C(c2cc(-c3ccccc3)cnc2OC)C(O)(CCN(C)C)c2cc(Cl)cc(Cl)c2)c1OC (stereo not drawn) [Compound 213] = 25.2 µg/mL
• COc1cccc(C(c2cc(-c3ccccc3)cnc2OC)C(O)(CCN(C)C)c2ccccc2)c1F (stereo not drawn) [Compound 226] = 25.5 µg/mL

(Q) Form field - read-out: IC50; system: Vero Cell; submitted item: COc1ncc(-c2ccsc2)cc1C(c1ccccc1)C(O)(CCN(C)C)c1cccc2ccccc12 (stereo not drawn) [Compound 136]
(A) > 50 µg/mL

(Q) Try COc1ncc(-c2ccccc2Cl)cc1C(c1ccccc1)C(O)(CCN(C)C)c1cccc2ccccc12 (stereo not drawn) [Compound 107] next.
(A) > 50 µg/mL

(Q) Try COc1ncc(-c2ccc(Br)cc2)cc1C(c1ccccc1)C(O)(CCN(C)C)c1cccc(F)c1F (stereo not drawn) [Compound 312] next.
(A) > 32 µg/mL

(Q) Try COc1ncc(-c2ccc(Br)cc2)cc1C(c1ccccc1)C(O)(CCN(C)C)c1cc(F)cc(F)c1 (stereo not drawn) [Compound 316] next.
(A) > 32 µg/mL

(Q) Try COc1ncc(-c2ccc(Br)cc2)cc1C(c1ccccc1)C(O)(CCN(C)C)c1cccc(F)c1 (stereo not drawn) [Compound 319] next.
(A) > 32 µg/mL

(Q) Try COc1ncc(-c2ccccc2)cc1C(c1ccccc1)C(O)(CCN(C)C)c1cccc2ccccc12 (stereo not drawn) [Compound 9] next.
(A) > 50 µg/mL

(Q) Try COc1ncc(N2CCOCC2)cc1C(c1ccccc1)C(O)(CCN(C)C)c1cccc2ccccc12 (stereo not drawn) [Compound 269] next.
(A) > 32 µg/mL

(Q) Try COc1ncc(-c2ccccc2)cc1C(c1ccccc1)C(O)(CCN(C)C)c1cc(F)cc(F)c1 (stereo not drawn) [Compound 35] next.
(A) > 50 µg/mL

(Q) Try COc1ncc(-c2cccc(F)c2)cc1C(c1ccccc1)C(O)(CCN(C)C)c1cccc2ccccc12 (stereo not drawn) [Compound 87] next.
(A) > 50 µg/mL

(Q) Try COc1ncc(-c2ccc(OC(F)(F)F)cc2)cc1C(c1ccccc1)C(O)(CCN(C)C)c1cccc2ccccc12 (stereo not drawn) [Compound 375] next.
(A) > 32 µg/mL

(Q) Try COc1ncc(-c2ccc(Br)cc2)cc1C(c1ccc(Cl)cc1)C(O)(CCN(C)C)c1cccc2ccccc12 (stereo not drawn) [Compound 325] next.
(A) > 32 µg/mL

(Q) Try COc1nc(OC)c(C(c2ccccc2)C(O)(CCN(C)C)c2cccc3ccccc23)cc1-c1ccc(Cl)cc1 (single isomer, unassigned) [Compound 401] next.
(A) > 32 µg/mL

* * *

system: Hela; test: Hela cell cytotoxicity (CC50); settings: human cervical cancer cells; half of the toxic concentration
# CC50_Hela listing for each entry below

Some solved entries appear below for comparison.
- COc1ncc(C2CCCCC2)cc1C(c1ccccc1)C(O)(CCN(C)C)c1cccc2ccccc12 (stereo not shown) [Compound 103]: 57.72 µg/mL
- COc1ncc(C2CCCC2)cc1C(c1ccccc1)C(O)(CCN(C)C)c1cccc2ccccc12 (stereo not shown): 28.75 µg/mL
- COc1ncc(-c2csc(Br)c2)cc1C(c1ccccc1)C(O)(CCN(C)C)c1cccc2ccccc12 (stereo not shown): >64 µg/mL

Now for the molecule whose CC50_Hela we want.
(Q) Which measured CC50_Hela value corresponds to COc1ncc(C2CCCCC2)cc1C(c1ccccc1)C(O)(CCN(C)C)c1cccc2ccccc12 (stereo not shown) [Compound 104] ?
(A) 19.18 µg/mL

// provenance: patent US9878982B2
